Give pIC50 for every item shown.
molecular target: Sodium channel protein type 9 subunit alpha (Homo sapiens, UniProt Q15858); assay: Ex-Vivo Potencies in Tonic state: The potencies of the compounds provided herein to block specific Na+ channels was measured using automated patch clamp electrophysiologically of Nav1.7 sodium channels (human SCN9A gene) stably expressed in CHO cells using the IonWorks Barracuda system. Currents were measured from the whole cell patch configuration. From a holding potential of −90 mV, membranes were subjected to a 200 ms pre-pulse to −120 mV, then pulsed to 0 mV to measure blockade of the tonic (resting) state. Inactivated state block was elicited by repolarization to −100 mV (20 ms pulse duration), followed by depolarization to 0 mV (20 ms pulse duration). Peak inward Na+ currents were measured in the presence of vehicle or various concentrations of the test compound to determine the percent block of current.; type: cell-based
Sequence (Q15858 whole entry): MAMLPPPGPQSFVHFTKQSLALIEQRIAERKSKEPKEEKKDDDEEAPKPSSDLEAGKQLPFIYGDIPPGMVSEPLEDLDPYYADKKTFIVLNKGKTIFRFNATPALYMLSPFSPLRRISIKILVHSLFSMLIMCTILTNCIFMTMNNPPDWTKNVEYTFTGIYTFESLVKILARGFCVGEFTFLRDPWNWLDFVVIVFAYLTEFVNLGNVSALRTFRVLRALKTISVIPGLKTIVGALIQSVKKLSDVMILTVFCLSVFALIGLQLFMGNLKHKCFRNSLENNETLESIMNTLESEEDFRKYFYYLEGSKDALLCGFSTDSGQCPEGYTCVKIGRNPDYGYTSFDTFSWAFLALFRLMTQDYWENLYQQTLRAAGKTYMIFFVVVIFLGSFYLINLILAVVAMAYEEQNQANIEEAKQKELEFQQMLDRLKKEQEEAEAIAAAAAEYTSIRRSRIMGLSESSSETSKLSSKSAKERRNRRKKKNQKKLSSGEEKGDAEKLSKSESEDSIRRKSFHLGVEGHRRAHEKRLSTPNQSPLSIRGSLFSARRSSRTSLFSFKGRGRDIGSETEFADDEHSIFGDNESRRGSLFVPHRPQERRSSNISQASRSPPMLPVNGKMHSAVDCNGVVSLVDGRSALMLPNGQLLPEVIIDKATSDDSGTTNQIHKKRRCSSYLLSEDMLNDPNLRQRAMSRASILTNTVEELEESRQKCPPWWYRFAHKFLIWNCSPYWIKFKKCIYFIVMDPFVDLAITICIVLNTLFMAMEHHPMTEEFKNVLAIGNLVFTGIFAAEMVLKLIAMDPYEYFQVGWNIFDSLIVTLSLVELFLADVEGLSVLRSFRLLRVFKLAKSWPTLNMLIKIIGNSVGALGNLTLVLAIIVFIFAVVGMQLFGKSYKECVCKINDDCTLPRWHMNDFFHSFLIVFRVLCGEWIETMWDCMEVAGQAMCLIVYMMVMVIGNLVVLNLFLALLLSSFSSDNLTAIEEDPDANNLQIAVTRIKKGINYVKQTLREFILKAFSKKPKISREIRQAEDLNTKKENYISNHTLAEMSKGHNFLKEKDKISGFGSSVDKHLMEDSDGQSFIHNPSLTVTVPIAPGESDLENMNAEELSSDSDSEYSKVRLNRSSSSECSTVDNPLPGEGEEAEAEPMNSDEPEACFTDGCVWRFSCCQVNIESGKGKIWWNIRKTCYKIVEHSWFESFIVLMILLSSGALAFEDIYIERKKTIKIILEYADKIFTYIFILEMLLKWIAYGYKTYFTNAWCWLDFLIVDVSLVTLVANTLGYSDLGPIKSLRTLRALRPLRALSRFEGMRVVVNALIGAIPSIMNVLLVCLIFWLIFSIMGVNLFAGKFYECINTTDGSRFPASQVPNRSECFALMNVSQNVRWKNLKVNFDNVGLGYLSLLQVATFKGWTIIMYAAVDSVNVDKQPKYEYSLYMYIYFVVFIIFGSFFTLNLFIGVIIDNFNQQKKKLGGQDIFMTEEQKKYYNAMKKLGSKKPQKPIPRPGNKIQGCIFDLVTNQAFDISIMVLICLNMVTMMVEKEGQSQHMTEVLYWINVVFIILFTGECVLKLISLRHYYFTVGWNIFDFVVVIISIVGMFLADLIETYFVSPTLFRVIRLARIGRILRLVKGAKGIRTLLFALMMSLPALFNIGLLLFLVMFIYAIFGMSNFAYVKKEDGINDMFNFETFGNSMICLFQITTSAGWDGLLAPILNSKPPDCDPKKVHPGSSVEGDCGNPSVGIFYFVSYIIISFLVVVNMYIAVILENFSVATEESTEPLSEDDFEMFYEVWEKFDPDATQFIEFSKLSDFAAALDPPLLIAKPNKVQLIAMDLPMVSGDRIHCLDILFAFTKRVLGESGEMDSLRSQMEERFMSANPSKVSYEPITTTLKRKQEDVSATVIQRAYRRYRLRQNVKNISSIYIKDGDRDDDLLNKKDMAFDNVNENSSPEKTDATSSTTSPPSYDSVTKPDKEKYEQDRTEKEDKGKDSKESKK
pIC50: −log10 of the molar value.

q: Which pIC50 is listed for "Nc1nc(N2CCN(C3CCOCC3)CC2)nnc1-c1cccc(Cl)c1Cl" ?
a: 3.83

Need pIC50 for each of these compounds.
1. C[C@@H]1CN(c2nnc(-c3cccc(Cl)c3Cl)c(N)n2)C[C@H](C)N1
2. COCCOCCOCCN1CCC(Nc2nnc(-c3cc(F)cc(Cl)c3Cl)c(N)n2)CC1

a:
1: 3.95; 2: < 3.70

State the recorded pIC50 for every item in the following list.
1. Nc1nc(N2CC(O)(C(F)(F)F)C2)nnc1-c1cccc(Cl)c1Cl
2. Nc1nc(N2CCN[C@@H](CO)C2)nnc1-c1cc(F)cc(Cl)c1Cl

a:
< 3.70
< 3.70

Give pIC50 for each of the items listed below.
1. COCCOCCOCC(=O)N1CCN(c2nnc(-c3cc(F)cc(Cl)c3Cl)c(N)n2)CC1
2. CC(CO)Nc1nnc(-c2cccc(Cl)c2Cl)c(N)n1 (configuration not stated)
3. C[C@@H]1CN(c2nnc(-c3cc(F)cc(Cl)c3Cl)c(N)n2)C[C@H](C)N1
4. Nc1nc(N2CCN[C@H](CO)C2)nnc1-c1cc(F)cc(Cl)c1Cl
5. Nc1nc(N2CCNCC2)nnc1-c1cc(F)cc(Cl)c1Cl
6. Nc1nc(N2CC(O)C2)nnc1-c1cccc(Cl)c1Cl

a:
["< 3.70", "< 3.70", 4.03, "< 3.70", "< 3.70", "< 3.88"]

Batch lookup, pIC50 per entry.
1. COCCOCCOCCN1CCN(c2nnc(-c3cccc(Cl)c3Cl)c(N)n2)CC1
2. COCCOCCOCCN(C)C1CCN(c2nnc(-c3cccc(Cl)c3Cl)c(N)n2)CC1
3. Nc1nc(N2CCN[C@H](CO)C2)nnc1-c1cccc(Cl)c1Cl
4. Nc1nc(N2CCN(CC(O)CO)[C@H](CO)C2)nnc1-c1cccc(Cl)c1Cl (some centres not stated)
5. COCCOCCOCC(C)Nc1nnc(-c2cccc(Cl)c2Cl)c(N)n1 (configuration not stated)
6. Nc1nc(N2CCN(C3CCNCC3)CC2)nnc1-c1cccc(Cl)c1Cl

a:
["< 3.70", 4.03, "< 3.70", "< 3.70", "< 3.70", "< 3.70"]

---

target: Sodium channel protein type 9 subunit alpha (Homo sapiens, UniProt Q15858); assay: Ex-Vivo Potencies in Inactivated state: The potencies of the compounds provided herein to block specific Na+ channels was measured using automated patch clamp electrophysiologically of Nav1.7 sodium channels (human SCN9A gene) stably expressed in CHO cells using the IonWorks Barracuda system. Currents were measured from the whole cell patch configuration. From a holding potential of −90 mV, membranes were subjected to a 200 ms pre-pulse to −120 mV, then pulsed to 0 mV to measure blockade of the tonic (resting) state. Inactivated state block was elicited by repolarization to −100 mV (20 ms pulse duration), followed by depolarization to 0 mV (20 ms pulse duration). Peak inward Na+ currents were measured in the presence of vehicle or various concentrations of the test compound to determine the percent block of current.; assay type: cell-based
quantity.measured: IC50 (µM)
Answers are plain numbers, in µM.

q: Record request: IC50 value, item "Nc1nc(N2CCN[C@H](CO)C2)nnc1-c1cc(F)cc(Cl)c1Cl"
a: 72.6

q: Requested field: IC50. Item: "Nc1nc(N2CCN[C@@H](CO)C2)nnc1-c1cc(F)cc(Cl)c1Cl"
a: 111

q: Need IC50, item "Nc1nc(N2CCN[C@H](CO)C2)nnc1-c1cccc(Cl)c1Cl"
a: 71.8

// batch mode: one IC50 value per listed entry
1. Nc1nc(N2CCNCC2)nnc1-c1cc(F)cc(Cl)c1Cl
2. CC(CO)Nc1nnc(-c2cccc(Cl)c2Cl)c(N)n1 (stereo unspecified)
3. Nc1nc(N2CC(N)C2)nnc1-c1cccc(Cl)c1Cl
4. Nc1nc(N2CCN(C3CCNCC3)CC2)nnc1-c1cccc(Cl)c1Cl

a:
1. 84.5
2. 127
3. 284
4. 272
